QUANTITY KIND: pIC50
Scale: negative log10 of molar concentration, which is what pIC50 denotes.

## Task Checklist item: pIC50 tested on Lck(h) (Homo sapiens), entry CC(C)n1c(Nc2cccnc2)nc2cnc(Nc3ccc(N4CCN(C)CC4)cc3)nc21 , value?
## Result 7.43

* * *

- EXPERIMENT DESCRIPTION: Solubility test (UV spectrophotometer, saturated solutions shaken 24 hours)
- Format: physicochemical
- TEST PARAMETERS: 25° C., water (purified water)
QUANTITY KIND: Solubility, Water medium (mg/mL)
Return type: number; implicit unit mg/mL.

## Task Query (molecule): CC(C)n1c(Nc2cccnc2)nc2cnc(Nc3ccc(N4CCN(C)CC4)cc3)nc21 [The compound represented by Formula 1] ; field requested: Solubility, Water medium
## Result 0.05

## Task Fill in the blank: the reported Solubility, Water medium of CC(C)n1c(Nc2cccnc2)nc2cnc(Nc3ccc(N4CCN(C)CC4)cc3)nc21 [Example 6] is ____.
## Result 9.68

## Task // lookup Solubility, Water medium for CC(C)n1c(Nc2cccnc2)nc2cnc(Nc3ccc(N4CCN(C)CC4)cc3)nc21 [Example 15]
## Result 63.57

## Task Give its Solubility, Water medium value. Item: CC(C)n1c(Nc2cccnc2)nc2cnc(Nc3ccc(N4CCN(C)CC4)cc3)nc21 [Example 9]
## Result 10.50

* * *

- EXPERIMENT DESCRIPTION: Solubility test (UV spectrophotometer, saturated solutions shaken 24 hours)
- Assay type: physicochemical
- TEST PARAMETERS: 25° C., water (purified water)
So I've got a bunch of compounds here, and I need their Solubility, Water medium values.
State the answer as a number, implicitly in mg/mL.

## Task # Solubility, Water medium lookup, item CC(C)n1c(Nc2cccnc2)nc2cnc(Nc3ccc(N4CCN(C)CC4)cc3)nc21 [Example 7]
## Result 6.91

## Task What does the record list as Solubility, Water medium for CC(C)n1c(Nc2cccnc2)nc2cnc(Nc3ccc(N4CCN(C)CC4)cc3)nc21 [Example 1] ?
## Result 40.41

## Task Given the compound CC(C)n1c(Nc2cccnc2)nc2cnc(Nc3ccc(N4CCN(C)CC4)cc3)nc21 [Example 13] , what is its reported Solubility, Water medium?
## Result 5.06

## Task Which value of Solubility, Water medium has been reported for CC(C)n1c(Nc2cccnc2)nc2cnc(Nc3ccc(N4CCN(C)CC4)cc3)nc21 [Example 14] in the records?
## Result 0.04

* * *

- EXPERIMENT DESCRIPTION: Solubility test (UV spectrophotometer, saturated solutions shaken 24 hours)
- Format: physicochemical
- TEST PARAMETERS: 25° C., pH=6.8 phosphate buffer solution
QUANTITY KIND: Solubility, Water medium pH = 6.8 (mg/mL)
The figure you give is taken to be in mg/mL; do not add the unit.

## Task I would be grateful if you could share the reported Solubility, Water medium pH = 6.8 for CC(C)n1c(Nc2cccnc2)nc2cnc(Nc3ccc(N4CCN(C)CC4)cc3)nc21 [Example 3] .
## Result 153.30

## Task Recorded Solubility, Water medium pH = 6.8 of CC(C)n1c(Nc2cccnc2)nc2cnc(Nc3ccc(N4CCN(C)CC4)cc3)nc21 [Example 8] , please.
## Result 10.46

## Task Please report the recorded Solubility, Water medium pH = 6.8 for CC(C)n1c(Nc2cccnc2)nc2cnc(Nc3ccc(N4CCN(C)CC4)cc3)nc21 [Example 6] .
## Result 12.05

## Task Bench note: what Solubility, Water medium pH = 6.8 did CC(C)n1c(Nc2cccnc2)nc2cnc(Nc3ccc(N4CCN(C)CC4)cc3)nc21 [Example 1] show?
## Result 50.62

## Task // returns reported Solubility, Water medium pH = 6.8 for input CC(C)n1c(Nc2cccnc2)nc2cnc(Nc3ccc(N4CCN(C)CC4)cc3)nc21 [Example 9]
## Result 11.48

## Task I am curious: what Solubility, Water medium pH = 6.8 value has been reported for CC(C)n1c(Nc2cccnc2)nc2cnc(Nc3ccc(N4CCN(C)CC4)cc3)nc21 [Example 10] ?
## Result 6.36

## Task Solubility, Water medium pH = 6.8 for CC(C)n1c(Nc2cccnc2)nc2cnc(Nc3ccc(N4CCN(C)CC4)cc3)nc21 [Example 17] ?
## Result 31.39

## Task What value of measured Solubility, Water medium pH = 6.8 is listed for CC(C)n1c(Nc2cccnc2)nc2cnc(Nc3ccc(N4CCN(C)CC4)cc3)nc21 [Example 16] ?
## Result 90.09

## Task What does the data say about its Solubility, Water medium pH = 6.8? Entry: CC(C)n1c(Nc2cccnc2)nc2cnc(Nc3ccc(N4CCN(C)CC4)cc3)nc21 [Example 12]
## Result 0.14

## Task Which Solubility, Water medium pH = 6.8 is reported for this molecule? CC(C)n1c(Nc2cccnc2)nc2cnc(Nc3ccc(N4CCN(C)CC4)cc3)nc21 [Example 7]
## Result 12.24

## Task Need Solubility, Water medium pH = 6.8 of CC(C)n1c(Nc2cccnc2)nc2cnc(Nc3ccc(N4CCN(C)CC4)cc3)nc21 [The compound represented by Formula 1] , thanks.
## Result 0.04

## Task Give its Solubility, Water medium pH = 6.8 value. Item: CC(C)n1c(Nc2cccnc2)nc2cnc(Nc3ccc(N4CCN(C)CC4)cc3)nc21 [Example 14]
## Result 0.03

## Task // Solubility, Water medium pH = 6.8 lookup, key: CC(C)n1c(Nc2cccnc2)nc2cnc(Nc3ccc(N4CCN(C)CC4)cc3)nc21 [Example 15]
## Result 27.84

## Task What does the record list as Solubility, Water medium pH = 6.8 for CC(C)n1c(Nc2cccnc2)nc2cnc(Nc3ccc(N4CCN(C)CC4)cc3)nc21 [Example 11] ?
## Result 8.61

## Task Need Solubility, Water medium pH = 6.8 of CC(C)n1c(Nc2cccnc2)nc2cnc(Nc3ccc(N4CCN(C)CC4)cc3)nc21 [Example 13] , thanks.
## Result 1.12

* * *

- TARGET ENTITY: EGFR(h) (Homo sapiens, UniProt P00533)
- Sequence (P00533 25-1210): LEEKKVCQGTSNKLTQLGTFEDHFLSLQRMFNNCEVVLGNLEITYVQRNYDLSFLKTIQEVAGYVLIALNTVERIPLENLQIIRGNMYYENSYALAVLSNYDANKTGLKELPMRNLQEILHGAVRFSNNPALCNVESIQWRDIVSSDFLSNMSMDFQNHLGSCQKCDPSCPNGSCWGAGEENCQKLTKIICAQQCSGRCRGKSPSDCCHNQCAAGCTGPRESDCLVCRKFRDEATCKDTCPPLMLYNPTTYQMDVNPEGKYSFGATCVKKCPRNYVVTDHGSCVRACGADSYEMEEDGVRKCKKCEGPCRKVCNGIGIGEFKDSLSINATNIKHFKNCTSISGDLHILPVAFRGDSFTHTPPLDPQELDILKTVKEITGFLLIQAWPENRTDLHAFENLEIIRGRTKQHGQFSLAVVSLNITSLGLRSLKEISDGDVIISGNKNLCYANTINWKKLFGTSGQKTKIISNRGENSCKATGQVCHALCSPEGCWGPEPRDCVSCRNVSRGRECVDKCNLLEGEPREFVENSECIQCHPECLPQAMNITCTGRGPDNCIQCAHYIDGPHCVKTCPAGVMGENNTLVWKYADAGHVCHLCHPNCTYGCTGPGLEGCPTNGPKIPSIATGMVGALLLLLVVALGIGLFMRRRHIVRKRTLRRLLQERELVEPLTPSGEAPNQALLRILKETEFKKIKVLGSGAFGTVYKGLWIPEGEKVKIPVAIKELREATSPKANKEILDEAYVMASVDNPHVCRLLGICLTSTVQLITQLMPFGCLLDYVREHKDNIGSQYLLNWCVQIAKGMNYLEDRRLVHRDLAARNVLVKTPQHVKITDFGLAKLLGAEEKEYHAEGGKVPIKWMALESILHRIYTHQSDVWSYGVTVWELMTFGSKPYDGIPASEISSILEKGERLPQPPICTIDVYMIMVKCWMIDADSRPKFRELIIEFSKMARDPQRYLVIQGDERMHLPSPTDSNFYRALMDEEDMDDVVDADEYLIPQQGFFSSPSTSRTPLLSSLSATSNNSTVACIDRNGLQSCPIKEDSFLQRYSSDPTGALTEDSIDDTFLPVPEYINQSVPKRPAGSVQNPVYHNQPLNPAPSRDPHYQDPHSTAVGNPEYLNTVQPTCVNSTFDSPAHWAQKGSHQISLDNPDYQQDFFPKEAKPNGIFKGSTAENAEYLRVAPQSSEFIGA
QUANTITY KIND: IC50 (nM)
Write the answer as a number in nM, unit excluded.

## Task Return IC50 measured with EGFR(h) (Homo sapiens, UniProt P00533) given this molecule: CC(C)n1c(Nc2cccnc2)nc2cnc(Nc3ccc(N4CCN(C)CC4)cc3)nc21 [Example 1]
## Result 42

* * *

- EXPERIMENT DESCRIPTION: Accelerated stability test
- Format: physicochemical
- TEST PARAMETERS: Placed at 25 ± 2° C. under 0% ± 5% RH in an open environment for 10 days
QUANTITY KIND: Appearance

CC(C)n1c(Nc2cccnc2)nc2cnc(Nc3ccc(N4CCN(C)CC4)cc3)nc21 [Example 15]    Off-white solid
CC(C)n1c(Nc2cccnc2)nc2cnc(Nc3ccc(N4CCN(C)CC4)cc3)nc21 [Example 6]    Yellow solid
CC(C)n1c(Nc2cccnc2)nc2cnc(Nc3ccc(N4CCN(C)CC4)cc3)nc21 [Example 14]    Off-white solid
CC(C)n1c(Nc2cccnc2)nc2cnc(Nc3ccc(N4CCN(C)CC4)cc3)nc21 [Example 10]    Yellow solid

## Task GET /values?readout=Appearance&item= CC(C)n1c(Nc2cccnc2)nc2cnc(Nc3ccc(N4CCN(C)CC4)cc3)nc21 [Example 4]
## Result Liquid

## Task Appearance lookup needed for CC(C)n1c(Nc2cccnc2)nc2cnc(Nc3ccc(N4CCN(C)CC4)cc3)nc21 [Example 5] , thanks.
## Result Liquid

## Task Which Appearance value belongs to CC(C)n1c(Nc2cccnc2)nc2cnc(Nc3ccc(N4CCN(C)CC4)cc3)nc21 [Example 11] ?
## Result Yellow solid

## Task Name the recorded Appearance for CC(C)n1c(Nc2cccnc2)nc2cnc(Nc3ccc(N4CCN(C)CC4)cc3)nc21 [Example 7] .
## Result Yellow solid

* * *

- EXPERIMENT DESCRIPTION: Solubility test (UV spectrophotometer, saturated solutions shaken 24 hours)
- Format: physicochemical
- TEST PARAMETERS: 25° C., water (purified water)
Is Solubility, Water medium at least 10 mg/mL? Then TRUE. If not, FALSE.

## Task Confirm if Solubility, Water medium reported for the molecule CC(C)n1c(Nc2cccnc2)nc2cnc(Nc3ccc(N4CCN(C)CC4)cc3)nc21 [Example 11] is 10 mg/mL or above.
## Result TRUE

## Task Is the recorded value of Solubility, Water medium equal to or greater than 10 mg/mL for this molecule? CC(C)n1c(Nc2cccnc2)nc2cnc(Nc3ccc(N4CCN(C)CC4)cc3)nc21 [Example 10]
## Result FALSE

## Task Does the molecule CC(C)n1c(Nc2cccnc2)nc2cnc(Nc3ccc(N4CCN(C)CC4)cc3)nc21 [Example 16] have recorded Solubility, Water medium that is 10 mg/mL or more?
## Result TRUE

## Task Reported Solubility, Water medium at or above 10 mg/mL? CC(C)n1c(Nc2cccnc2)nc2cnc(Nc3ccc(N4CCN(C)CC4)cc3)nc21 [Example 17]
## Result TRUE

## Task Is Solubility, Water medium at least 10 mg/mL? Consider CC(C)n1c(Nc2cccnc2)nc2cnc(Nc3ccc(N4CCN(C)CC4)cc3)nc21 [Example 3]
## Result TRUE

## Task Is the recorded value of Solubility, Water medium equal to or greater than 10 mg/mL for this molecule? CC(C)n1c(Nc2cccnc2)nc2cnc(Nc3ccc(N4CCN(C)CC4)cc3)nc21 [Example 12]
## Result FALSE

## Task Would you say CC(C)n1c(Nc2cccnc2)nc2cnc(Nc3ccc(N4CCN(C)CC4)cc3)nc21 [Example 4] shows Solubility, Water medium at minimum 10 mg/mL?
## Result TRUE
